# Assay: Acute toxicity (LD50) in mice after p.o. administration (Example 6)
# Format: in vivo
# Experimental Conditions: mouse, in vivo, po, 5000 mg/kg, mice M; 5000 mg/kg p.o.; read-out: % of perished animals after 15 days
Counter-ions that a name gives are not always drawn.
Measurement Type: mortality at 360 h

# molecule COC(=O)C1=C(C)NC(C)=C(C(=O)OCCN(C)Cc2ccccc2)C1c1cccc([N+](=O)[O-])c1 (stereo not shown) [nicardipine hydrochloride] ; its mortality at 360 h = 70%

---

# Assay: Solubility in water of nicardipine (hydrochloride), complexed and non-complexed (Example 3)
# Format: physicochemical
# Experimental Conditions: room temperature, saturated solution
Counter-ions that a name gives are not always drawn.
Measurement Type: solubility (µg/mL)
Reply numerically in µg/mL, unit not repeated.

compound COC(=O)C1=C(C)NC(C)=C(C(=O)OCCN(C)Cc2ccccc2)C1c1cccc([N+](=O)[O-])c1 (stereo not shown) [nicardipine hydrochloride] , solubility observed: 1500

---

# Assay: Acute toxicity (LD50) in mice after p.o. administration (Example 6)
# Type: in vivo
# Experimental Conditions: mouse, in vivo, po, 1500 mg/kg, mice M; 1500 mg/kg p.o.; read-out: % of perished animals after 24 hrs
Where a name gives a salt, the structure may show the parent alone.
Measurement Type: mortality at 24 h (%)
Provide the reading as a plain figure in %.

Short answer for COC(=O)C1=C(C)NC(C)=C(C(=O)OCCN(C)Cc2ccccc2)C1c1cccc([N+](=O)[O-])c1 (stereo not shown) [nicardipine hydrochloride] : mortality at 24 h was 0

---

# Assay: Acute toxicity (LD50) in mice after p.o. administration (Example 6)
# Type: in vivo
# Experimental Conditions: mouse, in vivo, po, 5000 mg/kg, mice M; 5000 mg/kg p.o.; read-out: % of perished animals after 24 hrs
Counter-ions that a name gives are not always drawn.
Measurement Type: mortality at 24 h

Kindly note the recorded mortality at 24 h for COC(=O)C1=C(C)NC(C)=C(C(=O)OCCN(C)Cc2ccccc2)C1c1cccc([N+](=O)[O-])c1 (stereo not shown) [nicardipine hydrochloride] , which is 40%

---

# Assay: Acute toxicity (LD50) in rats after p.o. administration (Example 6)
# Format: in vivo
# Experimental Conditions: rat, in vivo, po, 4000 mg/kg, rats F; 4000 mg/kg p.o.; read-out: % of perished animals after 24 hrs
Structures can show the parent of a compound that is named as a salt.
Measurement Type: mortality at 24 h (%)
The response must be a number in % with no trailing unit.

Memo: COC(=O)C1=C(C)NC(C)=C(C(=O)OCCN(C)Cc2ccccc2)C1c1cccc([N+](=O)[O-])c1 (stereo not shown) [nicardipine hydrochloride] , reported mortality at 24 h: 10

---

# Assay: Acute toxicity (LD50) in rats after p.o. administration (Example 6)
# Type: in vivo
# Experimental Conditions: rat, in vivo, po, 3000 mg/kg, rats F; 3000 mg/kg p.o.; read-out: % of perished animals after 15 days
# Description: In toxicological tests acute toxicities (LD50) of nicardipine hydrochloride and of its inclusion complex with beta-cyclodextrin were determined in mice and rats. The complex contained 26.8% of nicardipine hydrochloride. […] The volume of the administered suspension was in mice 0.6 ml/20 g of body weight and in rats 1.2 to 4.4 ml/200 g of body weight. […] After the administration the animals were put under observation and the symptoms of poisoning or behaviour changes were recorded for another 15 days. […]
Structures can show the parent of a compound that is named as a salt.
Measurement Type: mortality at 360 h (%)
# value in %; strip the unit string

mortality at 360 h measured on COC(=O)C1=C(C)NC(C)=C(C(=O)OCCN(C)Cc2ccccc2)C1c1cccc([N+](=O)[O-])c1 (stereo not shown) [nicardipine hydrochloride] = 0

---

# Assay: Acute toxicity (LD50) in mice after p.o. administration (Example 6)
# Format: in vivo
# Experimental Conditions: mouse, in vivo, po, 5000 mg/kg, mice F; 5000 mg/kg p.o.; read-out: % of perished animals after 15 days
Counter-ions that a name gives are not always drawn.
Measurement Type: mortality at 360 h
Reply with a number, then the unit it belongs to.

Note to self: mortality at 360 h recorded for COC(=O)C1=C(C)NC(C)=C(C(=O)OCCN(C)Cc2ccccc2)C1c1cccc([N+](=O)[O-])c1 (stereo not shown) [nicardipine hydrochloride] was 70%

---

# Assay: Acute toxicity (LD50) in mice after p.o. administration (Example 6)
# Type: in vivo
# Experimental Conditions: mouse, in vivo, po, 6000 mg/kg, mice F; 6000 mg/kg p.o.; read-out: % of perished animals after 15 days
Counter-ions that a name gives are not always drawn.
Measurement Type: mortality at 360 h (%)
Reply with just the number (in %).

Value of measured mortality at 360 h for the entry COC(=O)C1=C(C)NC(C)=C(C(=O)OCCN(C)Cc2ccccc2)C1c1cccc([N+](=O)[O-])c1 (stereo not shown) [nicardipine hydrochloride] : 90

---

# Assay: Acute toxicity (LD50) in mice after p.o. administration (Example 6)
# Assay type: in vivo
# Experimental Conditions: mouse, in vivo, po, 3000 mg/kg, mice F; 3000 mg/kg p.o.; read-out: % of perished animals after 24 hrs
Structures can show the parent of a compound that is named as a salt.
Measurement Type: mortality at 24 h (%)
Use % as the unit, but write only the number.

The compound listed as COC(=O)C1=C(C)NC(C)=C(C(=O)OCCN(C)Cc2ccccc2)C1c1cccc([N+](=O)[O-])c1 (stereo not shown) [nicardipine hydrochloride] has a reported mortality at 24 h of 40
